- TESTED_TARGET: T1, CRBN, Q96SW2;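 note: pooled lentiviral library of zinc finger degron-EGFP fusions in mCherry-positive Jurkat cells, FACS-sorted after compound exposure, with degron abundance counted by next-generation sequencing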
- T1 chain: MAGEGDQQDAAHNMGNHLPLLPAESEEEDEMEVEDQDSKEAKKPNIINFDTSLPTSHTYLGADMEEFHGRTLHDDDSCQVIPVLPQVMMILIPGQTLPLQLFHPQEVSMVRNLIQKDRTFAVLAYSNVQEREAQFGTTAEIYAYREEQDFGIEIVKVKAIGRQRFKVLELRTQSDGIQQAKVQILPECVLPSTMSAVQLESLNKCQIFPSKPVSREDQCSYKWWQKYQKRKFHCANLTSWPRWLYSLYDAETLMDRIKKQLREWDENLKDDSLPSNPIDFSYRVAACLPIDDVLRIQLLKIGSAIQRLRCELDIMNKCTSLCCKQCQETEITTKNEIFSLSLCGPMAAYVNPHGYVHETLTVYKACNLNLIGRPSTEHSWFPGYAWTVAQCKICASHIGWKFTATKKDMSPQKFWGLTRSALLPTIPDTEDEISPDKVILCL
- ASSAY_REMARKS: log2 fold change of degron read counts, EGFP-low vs EGFP+ sorted cells (limma voom), compound-induced degradation; higher = more compound-induced degradation of the degron-EGFP fusion; degrons are variants of IKZF1/3 zinc finger 2; compound dose not given here
- COND: Jurkat; 18 h; compound: compound 33 (diphenyl IMiD analogue)
The full ranking holds about 8,300 sequences; the median of “log2 fold change of degron read counts, EGFP-low vs EGFP+ sorted cells (limma voom), compound-induced degradation” is about -1.1, and the highest 2% start at about 3.2. This excerpt belongs to a sample that is enriched for the highest values.
ASSAY_METRIC: log2 fold change of degron read counts

SEQUENCE_RECORD | ASSAY_METRIC | VALUE
LRCPICGFGCTQKGNLLRHIKL [46L_47R_49P_50I_52G_53F_54G_55C_67L_, Q9UKT9] | log2 fold change of degron read counts | 2.33
LMCPICGFACTQKGNLLRHIKL [46L_47M_49P_50I_52G_53F_54A_55C_67L_, Q9UKT9] | log2 fold change of degron read counts | 2.86
LICPICGFACTQKGNLLRHIKL [46L_47I_49P_50I_52G_53F_54A_55C_67L_, Q9UKT9] | log2 fold change of degron read counts | 1.82
LYCPICGFGCTQKGNLLRHIKL [46L_47Y_49P_50I_52G_53F_54G_55C_67L_, Q9UKT9] | log2 fold change of degron read counts | 2.48

Data provenance is the supplement of paper PMC12645437.
